tested on: CCRF-CEM leukemia; experiment: NCI-60 one-dose screen, 48 h; conditions: 10 µM unless noted
This is part of a sample that, as a whole, favours compounds with a hit. Of some 83,000 tested, about 20% had one in any assay. Active and inactive are the calls of the source. How the source made its calls: active means growth percent below 10; inactive means the rest.
In this exercise, the only acceptable responses are active, inactive

QUERY: For "O=C1CCC(=O)CC1" , which call appears in the assay record?
RESULT: inactive

QUERY: For "FC(F)c1nc2ccccc2n1-c1nc(N2CCOCC2)nc(N2CCOCC2)n1" , which call appears in the assay record?
RESULT: active

QUERY: For "Nc1cc(C(F)(F)F)c(-c2cc(N3CCOCC3)nc(N3CCOCC3)n2)cn1" , which call appears in the assay record?
RESULT: active

QUERY: For "NC(=O)Nc1cc(-c2cccc(F)c2)sc1C(=O)N[C@H]1CCCNC1" , which call appears in the assay record?
RESULT: active

QUERY: For "C=C1[C@@H](O)C[C@H]2C(C)(C)C[C@H](Cl)C[C@]2(C)[C@H]1C[C@H](O)[C@H]1CC(=O)NC1=O" , which call appears in the assay record?
RESULT: active

QUERY: For "CCCS(=O)(=O)Nc1ccc(F)c(C(=O)c2c[nH]c3ncc(-c4ccc(Cl)cc4)cc23)c1F" , which call appears in the assay record?
RESULT: inactive

QUERY: For "CCc1nc2cc(/C=C/C(=O)NO)c(F)cc2c(=O)n1CCc1ccccc1" , which call appears in the assay record?
RESULT: active

QUERY: For "COc1ccc(CCCc2c3[n+](cc4c(OC)c(OC)ccc24)CCc2cc4c(cc2-3)OCO4)cc1" , which call appears in the assay record?
RESULT: inactive

QUERY: For "O=C(Cn1ccc2ccccc21)Nc1ccc(-c2nc3ccccc3s2)cc1" , which call appears in the assay record?
RESULT: inactive
